tested_target: UniProt:P00573
Format: biochemical
assay_context: 20 μL transcription system, Cap1 Analog 4 mM, 37° C. 2 to 3 hours
Values of Final product mass obtained from the 20 μL of mRNA transcription system strictly less than 100 µg map to yes, and values of at least 100 µg map to no.

CO[C@@H]1[C@H](CNC(C)=O)[C@@H](COP(=O)(O)OP(=O)(O)OP(=O)(O)OC[C@H]2O[C@@H](n3cnc4c(N)ncnc43)[C@H](OC)[C@@H]2OP(=O)(O)OC[C@H]2O[C@@H](n3cnc4c(=O)[nH]c(N)nc43)[C@H](O)[C@@H]2O)O[C@H]1n1c[n+](C)c2c(=O)[nH]c(N)nc21    yes
CCCCOC[C@H]1[C@@H](O)[C@H](n2c[n+](C)c3c(=O)[nH]c(N)nc32)O[C@@H]1COP(=O)(O)OP(=O)(O)OP(=O)(O)OC[C@H]1O[C@@H](n2cnc3c(N)ncnc32)[C@H](OC)[C@@H]1OP(=O)(O)OC[C@H]1O[C@@H](n2cnc3c(=O)[nH]c(N)nc32)[C@H](O)[C@@H]1O    no
CNC(=O)CC[C@H]1[C@@H](O)[C@H](n2c[n+](C)c3c(=O)[nH]c(N)nc32)O[C@@H]1COP(=O)(O)OP(=O)(O)OP(=O)(O)OC[C@H]1O[C@@H](n2cnc3c(N)ncnc32)[C@H](OC)[C@@H]1OP(=O)(O)OC[C@H]1O[C@@H](n2cnc3c(=O)[nH]c(N)nc32)[C@H](O)[C@@H]1O    no
CO[C@@H]1[C@H](OP(=O)([O-])OC[C@H]2O[C@@H](n3cnc4c(=O)[nH]c(N)nc43)[C@H](O)[C@@H]2O)[C@@H](CSP(=O)(O)OP(=O)(O)OP(=O)(O)OC[C@H]2O[C@@H](n3c[n+](C)c4c(=O)[nH]c(N)nc43)[C@H](O)[C@@H]2CNC(C)=O)O[C@H]1n1cnc2c(N)ncnc21    no
C#CCOCC[C@H]1[C@@H](O)[C@H](n2c[n+](C)c3c(=O)[nH]c(N)nc32)O[C@@H]1COP(=O)(O)OP(=O)(O)OP(=O)(O)OC[C@H]1O[C@@H](n2cnc3c(N)ncnc32)[C@H](OC)[C@@H]1OP(=O)(O)OC[C@H]1O[C@@H](n2cnc3c(=O)[nH]c(N)nc32)[C@H](O)[C@@H]1O    no
CO[C@@H]1[C@H](OP(=O)(O)OC[C@H]2O[C@@H](n3cnc4c(=O)[nH]c(N)nc43)[C@H](O)[C@@H]2O)[C@@H](COP(=O)(O)OP(=O)(O)OP(=O)(O)OC[C@H]2O[C@@H](n3c[n+](C)c4c(=O)[nH]c(N)nc43)[C@H](O)[C@@H]2CNC(=O)N(C)C)O[C@H]1n1cnc2c(N)ncnc21    yes
COCC[C@H]1[C@@H](O)[C@H](n2c[n+](C)c3c(=O)[nH]c(N)nc32)O[C@@H]1COP(=O)(O)OP(=O)(O)OP(=O)(O)OC[C@H]1O[C@@H](n2cnc3c(N)ncnc32)[C@H](OC)[C@@H]1OP(=O)([O-])OC[C@H]1O[C@@H](n2cnc3c(=O)[nH]c(N)nc32)[C@H](O)[C@@H]1O    yes

====

tested_target: T7 RNA Polymerase (Escherichia phage T7)
Sequence (P00573 whole entry): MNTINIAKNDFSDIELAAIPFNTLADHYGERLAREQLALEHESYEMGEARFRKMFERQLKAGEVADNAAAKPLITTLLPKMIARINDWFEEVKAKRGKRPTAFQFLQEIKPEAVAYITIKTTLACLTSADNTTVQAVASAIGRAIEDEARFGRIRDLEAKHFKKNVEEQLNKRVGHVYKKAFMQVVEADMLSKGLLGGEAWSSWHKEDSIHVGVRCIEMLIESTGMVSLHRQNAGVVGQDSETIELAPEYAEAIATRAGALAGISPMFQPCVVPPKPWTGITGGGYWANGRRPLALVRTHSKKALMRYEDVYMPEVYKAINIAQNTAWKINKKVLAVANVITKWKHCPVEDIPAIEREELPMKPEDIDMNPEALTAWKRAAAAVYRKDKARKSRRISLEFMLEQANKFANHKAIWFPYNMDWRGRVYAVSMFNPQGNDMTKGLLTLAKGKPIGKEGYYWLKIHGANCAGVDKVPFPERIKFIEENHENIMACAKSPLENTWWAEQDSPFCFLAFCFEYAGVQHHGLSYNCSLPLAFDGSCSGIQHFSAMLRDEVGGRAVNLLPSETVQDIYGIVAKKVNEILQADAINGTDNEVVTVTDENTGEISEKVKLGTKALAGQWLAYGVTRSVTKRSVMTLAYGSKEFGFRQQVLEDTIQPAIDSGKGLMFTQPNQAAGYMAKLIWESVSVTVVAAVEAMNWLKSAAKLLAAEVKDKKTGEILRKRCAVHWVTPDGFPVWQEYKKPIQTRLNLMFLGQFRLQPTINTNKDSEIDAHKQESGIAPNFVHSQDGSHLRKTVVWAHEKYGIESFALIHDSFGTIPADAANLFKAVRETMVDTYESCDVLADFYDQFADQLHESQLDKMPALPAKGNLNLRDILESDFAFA
Assay type: biochemical
assay_context: 20 μL transcription system, Cap1 Analog 4 mM, 37° C. 2 to 3 hours
observable: Final product mass obtained from the 20 μL of mRNA transcription system (µg)

CO[C@@H]1[C@H](OP(=O)(O)OC[C@H]2O[C@@H](n3cnc4c(=O)[nH]c(N)nc43)[C@H](O)[C@@H]2O)[C@@H](COP(=O)(O)OP(=O)(O)OP(=O)(O)OC[C@H]2O[C@@H](n3c[n+](C)c4c(=O)[nH]c(N)nc43)[C@H](O)[C@@H]2CCNC(C)=O)O[C@H]1n1cnc2c(N)ncnc21 [Compound 319]    102
CO[C@@H]1[C@H](OP(=O)([O-])OC[C@H]2O[C@@H](n3ccc(=O)[nH]c3=O)[C@H](O)[C@@H]2O)[C@@H](COP(=O)(O)OP(=O)(O)OP(=O)(O)OC[C@H]2OC(n3c[n+](C)c4c(=O)[nH]c(N)nc43)[C@H](O)[C@@H]2CNC(C)=O)O[C@H]1n1cnc2c(N)ncnc21 (stereo partly drawn) [Compound 118]    86
CCCCC(=O)NC[C@H]1[C@@H](O)[C@H](n2c[n+](C)c3c(=O)[nH]c(N)nc32)O[C@@H]1COP(=O)(O)OP(=O)(O)OP(=O)(O)OC[C@H]1O[C@@H](n2cnc3c(N)ncnc32)[C@H](OC)[C@@H]1OP(=O)(O)OC[C@H]1O[C@@H](n2cnc3c(=O)[nH]c(N)nc32)[C@H](O)[C@@H]1O [Compound 305]    92
COC(=O)NC[C@H]1[C@@H](O)[C@H](n2c[n+](C)c3c(=O)[nH]c(N)nc32)O[C@@H]1COP(=O)(O)OP(=O)(O)OP(=O)(O)OC[C@H]1O[C@@H](n2cnc3c(N)ncnc32)[C@H](OC)[C@@H]1OP(=O)(O)OC[C@H]1O[C@@H](n2cnc3c(=O)[nH]c(N)nc32)[C@H](O)[C@@H]1O [Compound 323]    114
CCCOCC[C@H]1[C@@H](O)[C@H](n2c[n+](C)c3c(=O)[nH]c(N)nc32)O[C@@H]1COP(=O)(O)OP(=O)(O)OP(=O)(O)OC[C@H]1O[C@@H](n2cnc3c(N)ncnc32)[C@H](OC)[C@@H]1OP(=O)(O)OC[C@H]1O[C@@H](n2cnc3c(=O)[nH]c(N)nc32)[C@H](O)[C@@H]1O [Compound 163]    102
CO[C@@H]1[C@H](OP(=O)(O)OC[C@H]2O[C@@H](n3cnc4c(=O)[nH]c(N)nc43)[C@H](O)[C@@H]2O)[C@@H](COP(=O)(O)OP(=O)(O)OP(=O)(O)OC[C@H]2O[C@@H](n3c[n+](C)c4c(=O)[nH]c(N)nc43)[C@H](O)[C@@H]2CO)O[C@H]1n1cnc2c(N)ncnc21 [Compound 137]    116

src = patent US12060385B2
